# target_entity: SULT1A1 (Homo sapiens, UniProt P50225, F255A)
# Sequence (P50225 whole entry F255A): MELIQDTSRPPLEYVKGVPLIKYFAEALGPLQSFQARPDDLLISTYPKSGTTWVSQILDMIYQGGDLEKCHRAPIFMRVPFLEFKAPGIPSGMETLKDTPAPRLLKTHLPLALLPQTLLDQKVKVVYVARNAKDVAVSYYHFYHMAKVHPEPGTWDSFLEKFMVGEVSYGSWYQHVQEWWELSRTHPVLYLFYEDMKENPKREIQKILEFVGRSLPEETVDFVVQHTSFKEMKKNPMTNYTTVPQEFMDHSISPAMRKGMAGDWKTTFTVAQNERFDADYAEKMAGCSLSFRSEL
# measurement_protocol: intrinsic fluorescence titration
pKd: −log10 of the molar value.
observed_property: pKd

INSERT INTO assay_data (compound, recorded_measurement) VALUES
  ('C[C@]12CC[C@@H]3c4ccc(O)cc4C[C@@H](CCCCCCCCC[S+]([O-])CCCC(F)(F)C(F)(F)F)[C@H]3[C@@H]1CC[C@@H]2O (stereo partly shown) [fulvestrant]', 5.82);

1. Oc1ccc2ccccc2c1 [2-Nap]
2. Nc1ncnc2c1ncn2[C@@H]1O[C@H](COP(=O)(O)O)[C@@H](OP(=O)(O)O)[C@H]1O [PAP]
3. C[C@]12CC[C@@H]3c4ccc(O)cc4CC[C@H]3[C@@H]1CC[C@@H]2O [E2]
Sort (3 compounds) by pKd: min first. // respond by listing labels in the order requested
1, 3, 2

----------
# target_entity: SULT1A1 (Homo sapiens, UniProt P50225, D249S)
# Sequence (P50225 whole entry D249S): as the sequence (P50225 whole entry F255A) above, with D249S, A255F counted along it
# measurement_protocol: intrinsic fluorescence titration
observed_property: Kd (nM)

INSERT INTO assay_data (molecule, observed_property, uom, recorded_measurement) VALUES
  ('Oc1ccc2ccccc2c1', 'Kd', 'nM', 2200);

a. C[C@]12CC[C@@H]3c4ccc(O)cc4CC[C@H]3[C@@H]1CC[C@@H]2O [E2]
b. C[C@]12CC[C@@H]3c4ccc(O)cc4C[C@@H](CCCCCCCCC[S+]([O-])CCCC(F)(F)C(F)(F)F)[C@H]3[C@@H]1CC[C@@H]2O (stereo partly shown)
c. Nc1ncnc2c1ncn2[C@@H]1O[C@H](COP(=O)(O)O)[C@@H](OP(=O)(O)O)[C@H]1O
Place the items in sequence of falling Kd. // respond by listing labels in the order requested
b, a, c

----------
# target_entity: SULT1A1 (Homo sapiens, UniProt P50225, I89A)
# Sequence (P50225 whole entry I89A): as the sequence (P50225 whole entry F255A) above, with I89A, A255F counted along it
# measurement_protocol: intrinsic fluorescence titration
observed_property: Kd (nM)

INSERT INTO results (molecule, observed_property, recorded_measurement) VALUES
  ('C[C@]12CC[C@@H]3c4ccc(O)cc4CC[C@H]3[C@@H]1CC[C@@H]2O [E2]', 'Kd', 1500);

A. C[C@]12CC[C@@H]3c4ccc(O)cc4C[C@@H](CCCCCCCCC[S+]([O-])CCCC(F)(F)C(F)(F)F)[C@H]3[C@@H]1CC[C@@H]2O (stereo partly shown) [fulvestrant]
B. Oc1ccc2ccccc2c1 [2-Nap]
C. Nc1ncnc2c1ncn2[C@@H]1O[C@H](COP(=O)(O)O)[C@@H](OP(=O)(O)O)[C@H]1O [PAP]
Place the items in sequence of falling Kd. // respond by listing labels in the order requested
B, A, C
(B: 1800 nM, A: 1100 nM, C: 310 nM)

----------
Entries below carry reported Kd on SULT1A1 (Homo sapiens, UniProt P50225).
Sequence (P50225 whole entry): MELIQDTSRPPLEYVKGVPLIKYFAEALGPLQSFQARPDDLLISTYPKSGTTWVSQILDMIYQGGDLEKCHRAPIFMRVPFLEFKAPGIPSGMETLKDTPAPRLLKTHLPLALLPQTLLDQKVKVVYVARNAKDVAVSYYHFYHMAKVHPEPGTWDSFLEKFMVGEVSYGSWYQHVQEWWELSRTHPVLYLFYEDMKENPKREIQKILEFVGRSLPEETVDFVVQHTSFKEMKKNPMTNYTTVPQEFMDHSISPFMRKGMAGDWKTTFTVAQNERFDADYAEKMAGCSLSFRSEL
observed_property: Kd (µM)

I. Oc1ccc2ccccc2c1
II. Nc1ncnc2c1ncn2[C@@H]1O[C@H](COP(=O)(O)O)[C@@H](OP(=O)(O)O)[C@H]1O
Compare I and II and name the one whose reported Kd is smaller. In your reply, give the label of the chosen option.
II
(II: 0.27 µM, I: 1.5 µM)
